Could you please report measured viability, T/C for the items listed next?
# System: CN0375-F725-PDC KRAS spheroid viability;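 also: spheroids exposed to agents for 7 days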
# protocol details: Anticancer human tumor CN0375-F725-PDC patient-derived colon carcinoma cell line growth inhibition [KRAS2]
# test context: second compound 3.16 µM; first compound 0.0316 µM; hits give low values; spheroids with HUVEC and MSC
The figure you give is taken to be in %; do not add the unit.

Report its viability, T/C with CN0375-F725-PDC KRAS spheroid viability as the test system: CCNC(=O)CC1N=C(c2ccc(Cl)cc2)c2cc(OC)ccc2-n2c(C)nnc21 (stereo unspecified) + CC1OCC2(CCN(c3cnc(Sc4ccnc(N)c4Cl)c(N)n3)CC2)C1N
79.4

Report its viability, T/C with CN0375-F725-PDC KRAS spheroid viability as the test system: CC1(C)CCC(CN2CCN(c3ccc(C(=O)NS(=O)(=O)c4ccc(NCC5CCOCC5)c([N+](=O)[O-])c4)c(Oc4cnc5[nH]ccc5c4)c3)CC2)=C(c2ccc(Cl)cc2)C1 + C=CC(=O)N1CCN(c2nc(OCC3CCCN3C)nc3c2CCN(c2cccc4cccc(C)c24)C3)CC1CC#N
11

Report its viability, T/C with CN0375-F725-PDC KRAS spheroid viability as the test system: CC(C)NCC(C(=O)N1CCN(c2ncnc3c2C(C)CC3O)CC1)c1ccc(Cl)cc1 (stereo unspecified) + CC1OCC2(CCN(c3cnc(Sc4ccnc(N)c4Cl)c(N)n3)CC2)C1N
87.4

Report its viability, T/C with CN0375-F725-PDC KRAS spheroid viability as the test system: CC(=O)Nc1cccc(-n2c(=O)n(C3CC3)c(=O)c3c(Nc4ccc(I)cc4F)n(C)c(=O)c(C)c32)c1 + CC1OCC2(CCN(c3cnc(Sc4ccnc(N)c4Cl)c(N)n3)CC2)C1N
27.2

Report its viability, T/C with CN0375-F725-PDC KRAS spheroid viability as the test system: Cn1ncnc1[C@H]1c2n[nH]c(=O)c3cc(F)cc(c23)N[C@@H]1c1ccc(F)cc1 + CNCc1ccccc1-c1csc(C(C)Nc2nc(C)nc3cc(OC)c(OC)cc23)c1
0.25

Report its viability, T/C with CN0375-F725-PDC KRAS spheroid viability as the test system: Cn1ncnc1[C@H]1c2n[nH]c(=O)c3cc(F)cc(c23)N[C@@H]1c1ccc(F)cc1 + C=CC(=O)N1CCN(c2nc(OCC3CCCN3C)nc3c2CCN(c2cccc4cccc(C)c24)C3)CC1CC#N
14.4
